# system.name: human RIPK1 (1-375) (Homo sapiens)
# Construct: human RIPK1 (1-375) gene; GST; made in house; host or cells: Sf-9 insect cells
# test.summary: Human RIPK1 enzyme inhibitory effect (ADP-Glo Kinase Assay)
# Assay type: biochemical
# assay.conditions: read-out: human RIPK1 enzyme inhibitory effect at 10 μM (% inhibition), 10 μM test compound; well without enzyme = 100% inhibition
# inhibition at 10 µM listing for each entry below
Numeric only. Scale: %

Before answering, review these 7 worked examples.
given.smiles: CN1C(=O)[C@@H](N2CCc3cn(Cc4ncccn4)nc3C2=O)COc2ccccc21
inhibition at 10 µM (%): 86

given.smiles: CN1C(=O)[C@@H](N2CCc3cn(Cc4cccc(F)c4)nc3C2=O)COc2ccccc21
inhibition at 10 µM (%): 99

given.smiles: CN1C(=O)[C@@H](N2CCc3cn(Cc4ccc(Cl)cc4)nc3C2=O)COc2ccccc21
inhibition at 10 µM (%): 100

given.smiles: CN1C(=O)[C@@H](N2CCc3cn(CC4CCC4)nc3C2=O)COc2ccccc21
inhibition at 10 µM (%): 98

given.smiles: CN1C(=O)[C@@H](N2CCc3cn(CC4CC4)nc3C2=O)COc2ccccc21
inhibition at 10 µM (%): 93

given.smiles: CNC(=O)c1ccc2c(c1)OC[C@H](N1CCc3c(nn(Cc4ccccc4)c3Cl)C1=O)C(=O)N2C
inhibition at 10 µM (%): 100

given.smiles: CN1C(=O)[C@@H](N2CCc3cn(Cc4cccc(C#N)c4)nc3C2=O)COc2ccccc21
inhibition at 10 µM (%): 99

Let us examine a further case.
Lookup: Reported inhibition at 10 µM for `CN1C(=O)[C@@H](N2CCc3cn(Cc4ccc(S(C)(=O)=O)cc4)nc3C2=O)COc2ccccc21` : what is it?
Found: 98

----------
# inhibition at 10 µM listing for each entry below
# system.name: human RIPK1 (1-375) (Homo sapiens)
# Construct: human RIPK1 (1-375) gene; GST; made in house; host or cells: Sf-9 insect cells
# test.summary: Human RIPK1 enzyme inhibitory effect (ADP-Glo Kinase Assay)
# Format: biochemical
# assay.conditions: read-out: human RIPK1 enzyme inhibitory effect at 10 μM (% inhibition), 10 μM test compound; well without enzyme = 100% inhibition
A bare number is not enough; add the unit after it.

Before answering, review these 3 worked examples.
compound: O=C1Nc2ccccc2CCC1N1Cc2sc(Cc3ccccc3)nc2C1=O (centres unmarked)
obs.value: 91%
//
compound: CN1C(=O)[C@@H](N2CCc3cn(Cc4c(F)cccc4F)nc3C2=O)COc2cc(Br)ccc21
obs.value: 100%
//
compound: CN1C(=O)[C@@H](N2CCc3cn(CC4(C)CCC4)nc3C2=O)COc2ccccc21
obs.value: 98%

Lookup: Which inhibition at 10 µM is reported with human RIPK1 (1-375) (Homo sapiens) for this entry: CN1C(=O)C(N2CCc3c(nn(Cc4ccccc4F)c3Cl)C2=O)CCc2cnccc21 (centres unmarked) ?
Found: 99%

Lookup: Which inhibition at 10 µM is reported with human RIPK1 (1-375) (Homo sapiens) for this entry: `CN1C(=O)[C@@H](N2CCc3cn(Cc4ccccc4)nc3C2=O)COc2ccccc21` ?
Found: 100%

----------
# inhibition at 10 µM listing for each entry below
# system.name: human RIPK1 (1-375) (Homo sapiens, UniProt Q13546)
# Construct: human RIPK1 (1-375) gene; GST; made in house; host or cells: Sf-9 insect cells
# Sequence (Q13546 1-375): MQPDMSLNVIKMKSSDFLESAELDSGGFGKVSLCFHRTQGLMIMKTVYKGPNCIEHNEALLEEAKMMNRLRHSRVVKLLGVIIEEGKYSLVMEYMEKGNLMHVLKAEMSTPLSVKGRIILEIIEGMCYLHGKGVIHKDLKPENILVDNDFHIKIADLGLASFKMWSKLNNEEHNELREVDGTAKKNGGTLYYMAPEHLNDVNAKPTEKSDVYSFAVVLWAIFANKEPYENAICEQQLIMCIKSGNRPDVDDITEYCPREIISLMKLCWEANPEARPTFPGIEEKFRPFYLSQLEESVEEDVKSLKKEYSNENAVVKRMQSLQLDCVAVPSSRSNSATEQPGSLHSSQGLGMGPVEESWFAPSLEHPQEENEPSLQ
# test.summary: Human RIPK1 enzyme inhibitory effect (ADP-Glo Kinase Assay)
# Assay type: biochemical
# assay.conditions: read-out: human RIPK1 enzyme inhibitory effect at 10 μM (% inhibition), 10 μM test compound; well without enzyme = 100% inhibition
Numeric only. Scale: %

Lookup: Which inhibition at 10 µM is reported with human RIPK1 (1-375) (Homo sapiens, UniProt Q13546) for this entry: `CN1C(=O)[C@@H](N2CCc3cn(Cc4c(F)cccc4F)nc3C2=O)COc2cc(C#N)ccc21` ?
Found: 101

Lookup: Which inhibition at 10 µM is reported with human RIPK1 (1-375) (Homo sapiens, UniProt Q13546) for this entry: `CN1C(=O)[C@@H](N2CCc3c(nn(Cc4ccccc4)c3Cl)C2=O)COc2cc(C3COC3)ccc21` ?
Found: 97

Lookup: Which inhibition at 10 µM is reported with human RIPK1 (1-375) (Homo sapiens, UniProt Q13546) for this entry: `CN1C(=O)[C@@H](N2CCc3cn(Cc4ccc(Cl)cc4F)nc3C2=O)COc2ccccc21` ?
Found: 100

Lookup: Which inhibition at 10 µM is reported with human RIPK1 (1-375) (Homo sapiens, UniProt Q13546) for this entry: `CN1C(=O)[C@@H](N2Cc3c(nn(Cc4ccccc4)c3Cl)C2=O)COc2ccccc21` ?
Found: 99

Lookup: Which inhibition at 10 µM is reported with human RIPK1 (1-375) (Homo sapiens, UniProt Q13546) for this entry: CC(c1ccccc1)n1cc2c(n1)C(=O)N([C@H]1COc3ccccc3N(C)C1=O)CC2 (stereo partly drawn) ?
Found: 100

Lookup: Which inhibition at 10 µM is reported with human RIPK1 (1-375) (Homo sapiens, UniProt Q13546) for this entry: `Cc1nccnc1Cn1nc2c(c1Cl)CCN([C@H]1COc3ccccc3N(C)C1=O)C2=O` ?
Found: 91

Lookup: Which inhibition at 10 µM is reported with human RIPK1 (1-375) (Homo sapiens, UniProt Q13546) for this entry: `CN1C(=O)[C@@H](N2CCc3cn(Cc4ccccc4)nc3C2=O)CS(=O)(=O)c2ccccc21` ?
Found: 99

----------
# inhibition at 10 µM listing for each entry below
# system.name: human RIPK1 (1-375) (Homo sapiens)
# Construct: human RIPK1 (1-375) gene; GST; made in house; host or cells: Sf-9 insect cells
# Sequence (Q13546 1-375): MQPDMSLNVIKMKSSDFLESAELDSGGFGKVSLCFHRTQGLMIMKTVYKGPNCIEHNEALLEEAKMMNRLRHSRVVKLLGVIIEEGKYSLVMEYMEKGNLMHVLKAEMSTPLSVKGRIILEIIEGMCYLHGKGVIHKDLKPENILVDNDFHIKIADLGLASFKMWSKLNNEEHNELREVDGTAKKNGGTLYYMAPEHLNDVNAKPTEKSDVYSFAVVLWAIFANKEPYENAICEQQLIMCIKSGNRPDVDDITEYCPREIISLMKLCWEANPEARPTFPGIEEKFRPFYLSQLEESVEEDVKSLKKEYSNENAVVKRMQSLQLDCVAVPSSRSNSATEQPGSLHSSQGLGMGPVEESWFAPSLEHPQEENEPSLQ
# test.summary: Human RIPK1 enzyme inhibitory effect (ADP-Glo Kinase Assay)
# Assay type: biochemical
# assay.conditions: read-out: human RIPK1 enzyme inhibitory effect at 10 μM (% inhibition), 10 μM test compound; well without enzyme = 100% inhibition
A bare number is not enough; add the unit after it.

Before answering, review these 2 worked examples.
compound: CN1C(=O)[C@@H](N2CCc3c(nn(Cc4ccccc4)c3Cl)C2=O)COc2cc(C(=O)NC3COC3)ccc21
obs.value: 98%
//
compound: CN1C(=O)[C@@H](N2CCc3c(nn(Cc4ccccc4)c3Cl)C2=O)COc2cc(C(N)=O)ccc21
obs.value: 101%

Lookup: Reported inhibition at 10 µM for CN1C(=O)C(N2CCc3c(nn(Cc4ccccc4)c3Cl)C2=O)CCc2nn(C)cc21 (stereo not shown) : what is it?
Found: 98%

Lookup: Reported inhibition at 10 µM for `CN1C(=O)[C@@H](N2CCc3c(nn(Cc4ccccc4)c3Cl)C2=O)COc2cc(-c3ncco3)ccc21` : what is it?
Found: 100%

Lookup: Reported inhibition at 10 µM for `CN1C(=O)[C@@H](N2CCc3cn(Cc4ccccc4F)nc3C2=O)COc2ccc(Br)cc21` : what is it?
Found: 101%

Lookup: Reported inhibition at 10 µM for `CN1C(=O)[C@@H](N2CCc3c(nn(Cc4ccccc4)c3Cl)C2=O)COc2cc(N3CCOCC3)ccc21` : what is it?
Found: 100%

Lookup: Reported inhibition at 10 µM for `CN1C(=O)[C@@H](N2CCc3cn(Cc4ccccc4)nc3C2=O)CSc2ccccc21` : what is it?
Found: 99%
